# System: Staphylococcus aureus
# methodSummary: Antibacterial activity against Staphylococcus aureus SH1000 cultured in iron rich media assessed as reduction in bacterial cell growth
# Format: functional
MIC values by entry
readoutType: MIC

INSERT INTO assay_data (smilesstr, readouttype, reportedvalue) VALUES
  ('CCC(=O)[C@@H](C)C[C@@H](C)C[C@@H](C)CC[C@H](O)CC(=O)[C@H](CC(C)C)[C@H](O)c1cc(O)cc(O)c1', 'MIC', '63 µM'),
  ('CCC(=O)CCCCCCC[C@H](O)C[C@H](O)[C@H](CC(C)C)[C@H](O)c1cc(O)cc(O)c1', 'MIC', '> 500 µM'),
  ('CCC(=O)[C@@H](C)C[C@@H](C)C[C@@H](C)CC[C@H](O)C[C@H](O)[C@H](CC(C)C)[C@H](O)c1cc(OC)cc(OC)c1', 'MIC', '> 500 µM'),
  ('CCC(=O)[C@@H](C)C[C@@H](C)C[C@@H](C)CC[C@H](O)C[C@H](O)[C@H](CC(C)C)[C@H](O)c1cc(O)cc(O)c1', 'MIC', '125 µM'),
  ('CCC(=O)[C@@H](C)C[C@@H](C)C[C@@H](C)CC[C@H](O)C[C@H](O)[C@@H](CC(C)C)[C@H](O)c1cc(O)cc(O)c1', 'MIC', '125 µM'),
  ('CC[C@H](O)C[C@H](O)[C@H](CC(C)C)[C@H](O)c1cc(O)cc(O)c1', 'MIC', '> 500 µM'),
  ('CCCC(=O)[C@@H](C)C[C@@H](C)C[C@@H](C)CC[C@H](O)C[C@H](O)[C@H](CC(C)C)[C@H](O)c1cc(O)cc(O)c1', 'MIC', '63 µM');
